tested.target: Concanavalin-A (Canavalia ensiformis) (UniProt P02866)
Sequence (P02866 whole entry, looked up): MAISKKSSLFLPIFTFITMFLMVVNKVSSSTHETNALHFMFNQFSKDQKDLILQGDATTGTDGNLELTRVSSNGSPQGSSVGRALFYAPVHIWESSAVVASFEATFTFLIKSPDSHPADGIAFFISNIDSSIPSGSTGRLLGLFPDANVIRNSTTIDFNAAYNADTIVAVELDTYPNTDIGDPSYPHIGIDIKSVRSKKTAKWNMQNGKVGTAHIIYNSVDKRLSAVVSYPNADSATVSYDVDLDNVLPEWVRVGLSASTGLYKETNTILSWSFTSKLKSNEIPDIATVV
assay.remarks: ConA small-molecule binders, primary screen, artefact control for SMM control protein annotation, biochemical, small-molecule microarray, Alexa647 label, 635 nm (AID 1127);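 note: z combines 667 nm emission intensity with signal-to-noise across three replicate slides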
experimental.setup: ConA-A647 binding fluorescence, higher = more signal
quantity.name: composite z-score

molecule: O=C1c2ccccc2C(=O)c2cc([C@H]3Oc4ccccc4S(=O)(=O)N4CCC[C@@H]34)ccc21
quantity.name: composite z-score
value: -2.59
//
molecule: COc1ccc(/C=C/C(=O)c2cccc(OCC(=O)OC(C)(C)C)c2)cc1
quantity.name: composite z-score
value: 0.4
//
molecule: CC(C)(C)OC(=O)CC[C@@]1(C(=O)NCc2ccccc2)N=C(c2ccc(OCCCO)cc2)O[C@@H]1c1ccccc1CN=[N+]=[N-]
quantity.name: composite z-score
value: 1.09
//
molecule: CCN(CC)c1ccc(N2CC=CC34O[C@@H]5C=CCOC(=O)[C@@H]5[C@H]3C(=O)N(C(CO)C(C)C)[C@@H]4C2=O)cc1 (stereo not given in full)
quantity.name: composite z-score
value: -0.374
//
molecule: CCCCC(=C=CC[C@H](O)c1cccc(OCCO)c1)CCO
quantity.name: composite z-score
value: -0.245

---

assay.remarks: E. coli growth modulation, two-sided OD650, primary screen, E. coli filamentation project, strain DRC41, 24 h (AID 1093);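 note: MC1000 strain lacking acrAB efflux and sulA so SOS filamentation is blocked; test concentration not given here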
experimental.setup: OD650, 24 h, higher = more signal, called active from +8 up or from −8 down
// reported z-score per item

smiles.entry: C=C(COC)C(=O)CC[C@H](OC(=O)c1cccnc1)c1cccc(OCCO)c1
z-score: 1.18
//
smiles.entry: COCCCNC(=O)[C@@]1(Cc2ccccc2CN=[N+]=[N-])COC(c2ccc(OCCCO)cc2)=N1
z-score: 2.36
//
smiles.entry: Cc1ccc(N2C(=O)c3ccccc3[C@](C)(C(=O)NC3CC3)[C@@H]2c2ccc(CO)cc2)nc1
z-score: 0.949
//
smiles.entry: Cc1ccc(S[C@]2(C(=O)NCC(C)C)CC(=O)N(C(C)C)[C@@H]2c2ccc(CO)cc2)cc1
z-score: 0.538
//
smiles.entry: C=CCOC(=O)[C@H]1[C@@H]2C(=O)O[C@@H](c3ccccc3)[C@@H](c3ccccc3)N2[C@@H](c2ccc(OCCOC(=O)[C@H]3C[C@H]4C(=O)N5CCC[C@H]5C(=O)N4[C@H]3c3cccc(OCCO)c3)cc2)[C@]12C(=O)Nc1ccccc12
z-score: 1.83
//
smiles.entry: COCCOC(=O)N1C(=O)[C@@]2(c3cc(C#CCNC(N)=O)ccc31)[C@H](C(=O)NC[C@H](O)c1ccccc1)[C@H]1C(=O)O[C@H](c3ccccc3)[C@H](c3ccccc3)N1[C@@H]2c1ccc(O)cc1
z-score: 2
//
smiles.entry: CCCC[C@@H](O)C1=C(C)C[C@H]2C(=O)N(C)C(=O)[C@H]2[C@H]1CO
z-score: 2.68
//
smiles.entry: C[N+](C)(C)CCCC[C@@H]1NC(=O)[C@H]2C[C@@H](C(=O)NCCCCCN)[C@@H](c3cccc(OCCO)c3)N2C1=O
z-score: 2.4

---

tested.target: NADPH oxidase 4 (Homo sapiens)
assay.remarks: NOX4-dependent H2O2 signal modulators, primary screen, NOX inhibitor project, cell-based, HEK293-NOX4, tetracycline-induced, Amplex Red fluorescence (AID 1160)
experimental.setup: 45 min, higher = more signal, called active from +8 up or from −8 down
Assign class by z-score: not lower than -0.1 means Criterion met; lower than -0.1 means Criterion not met.

smiles.entry: COCCOC(=O)N1C(=O)[C@@]2(c3cc(C#CC4(O)CCCCCC4)ccc31)[C@H](C(=O)NC[C@H](O)c1ccccc1)[C@H]1C(=O)O[C@H](c3ccccc3)[C@H](c3ccccc3)N1[C@@H]2c1ccccc1OCCO
assigned.class: Criterion not met
--
smiles.entry: CC(C)[Si](C#C[Si](C(C)C)(C(C)C)C(C)C)(O[C@H](C)c1cn([C@H](C)c2ccccc2)nn1)C(C)C
assigned.class: Criterion met
--
smiles.entry: COc1ccc(C(=O)Nc2cccc(CN3C(=O)[C@@]4(O[C@@H](CCO)[C@H]([Si](C)(C)c5ccc(OC)cc5)[C@H]4C)c4ccccc43)c2)cc1
assigned.class: Criterion not met
--
smiles.entry: COCCCNC(=O)[C@@]1(Cc2ccccc2)N=C(c2ccc(OCCCO)cc2)O[C@H]1c1ccccc1N=[N+]=[N-]
assigned.class: Criterion met
--
smiles.entry: COC(=O)[C@@]1(CCC(=O)OC(C)(C)C)COC(c2ccc(OCCCO)cc2)=N1
assigned.class: Criterion met
--
smiles.entry: COc1ccc([Si](C)(C)[C@H]2[C@H](CC(=O)N(CCO)Cc3ccccc3)O[C@@]3(C(=O)N(Cc4ccc(N5CCC5=O)cc4)c4ccccc43)[C@@H]2C)cc1
assigned.class: Criterion met
--
smiles.entry: NC(=O)NCC#Cc1ccc2c(c1)[C@]1(C(=O)N2)[C@H](c2ccc(OCCO)cc2)N2[C@H](c3ccccc3)[C@H](c3ccccc3)OC(=O)[C@H]2[C@@H]1C(=O)Nc1nc2ccccc2s1
assigned.class: Criterion met
--
smiles.entry: CC(C)[C@@H](C(=O)O)n1cc(-c2ccccn2)nn1
assigned.class: Criterion met
--
smiles.entry: O=C(NCc1ccccc1)[C@@H]1c2ccccc2C(=O)N(Cc2ccccc2Cl)[C@H]1c1ccc(CO)cc1
assigned.class: Criterion met
--
smiles.entry: CC(C)C(=C=CC[C@H](O)c1ccc(OCCO)cc1)C[C@H](O)COCc1ccccc1
assigned.class: Criterion not met
--
smiles.entry: C=C(CCCC)/C(=C/C[C@@H](OC(=O)c1ccncc1)c1ccc(OCCO)cc1)c1cnc2ccccc2c1
assigned.class: Criterion not met

---

assay.remarks: FRG1 promoter luciferase signal modulators, primary screen, FRG1 inhibition for FSHD, cell-based, C2C12 myotubes, firefly/Renilla luciferase, luminescence (AID 1084)
experimental.setup: higher = more signal, called active from +8 up or from −8 down
// reported z-score per item
quantity.name: z-score

molecule: O=C(N1CCCCC1)[C@@]1(Cc2ccccc2)N=C(c2ccc(OCCCO)cc2)O[C@H]1c1ccccc1
value: -3.21
//
molecule: COC(=O)C(CC#Cc1ccc2c(c1)[C@]1(C(=O)N2)[C@H](c2ccccc2OCCO)N2[C@H](c3ccccc3)[C@H](c3ccccc3)OC(=O)[C@H]2[C@@H]1C(=O)N1CCCCCCC1)C(=O)OC
value: 0.62
//
molecule: C=CCC(OC(C)=O)[C@@H]1[C@@H](N(Cc2ccc(-c3ccccc3)cc2)C(=O)c2ccc(-c3ccccc3)cc2)c2cc(OCCCO)ccc2N1C(=O)c1ccc(-c2ccccc2)cc1 (some centres undefined)
value: -0.0089
//
molecule: C=CC[C@]1(C(=O)N(C)C)N=C(c2ccc(OCCCO)cc2)O[C@H]1c1ccccc1CN=[N+]=[N-]
value: -2.15

---

assay.remarks: E. coli acrAB mutant growth effects, primary screen, E. coli filamentation inducers, strain DRC39, OD650, 48 h (AID 1179);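 note: screen aims at cell division blockers that make cells filament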
experimental.setup: E. coli DRC39 delta-acrAB growth, higher = more signal, called active from +8 up or from −8 down
Assign class by z-score: not lower than 0.8 means rule met; lower than 0.8 means rule not met.

compound: COCCOC(=O)N1C(=O)[C@@]2(c3cc(C#CC4(O)CCCCCC4)ccc31)[C@H](c1ccccc1OCCO)N1[C@H](c3ccccc3)[C@H](c3ccccc3)OC(=O)[C@H]1[C@@H]2C(=O)Nc1nc2ccccc2s1
assigned.class: rule not met

compound: CC(C)C[C@@H]1NC(=O)[C@@]23C(=O)N[C@@H](Cc4ccccc4)C2[C@H](C)[C@@]2(C)O[C@H]2C3/C=C/C/C=C\CNC(=O)[C@H](Cc2ccccc2)NC1=O (some centres not stated)
assigned.class: rule met

compound: O=C1O[C@H](c2ccccc2)[C@H](c2ccccc2)N2[C@H]1[C@@H](C(=O)Nc1nc3ccccc3s1)[C@]1(C(=O)Nc3ccc(C#CCCO)cc31)[C@H]2c1ccccc1OCCO
assigned.class: rule not met

compound: COCCCNC(=O)[C@@]1(CCS(=O)(=O)c2ccccc2)N=C(c2ccc(OCCCO)cc2)O[C@H]1c1ccccc1CN=[N+]=[N-]
assigned.class: rule not met

compound: CC(C)C(CO)N1C(=O)[C@@H]2C3C(=O)OCCC/C=C\[C@H]3OC23C=CCN(C(C)C)C(=O)[C@@H]13 (some centres not stated)
assigned.class: rule met

compound: C/C=C/[C@@H](CCn1cc(CCO[Si](C(C)C)(C(C)C)C(C)C)nn1)[Si](C)(C)c1ccc(OC)cc1
assigned.class: rule met

compound: CO[C@H]1O[C@H](CO)[C@@H](OC(=O)Nc2ccccc2)[C@H](OC(=O)Nc2ccc3c(c2)OCO3)[C@H]1OC(=O)Nc1ccc2c(c1)OCO2
assigned.class: rule met

---

assay.remarks: small-molecule microarray binders of probe aCHRDL2, primary screen, biochemical, biotinylated probe, 635/667 nm fluorescence (AID 1100)
experimental.setup: higher = more signal
Assign class by composite z-score: not lower than 0.2 means T; lower than 0.2 means F.

compound: C=CCN1C(=O)[C@]2(O[C@H](CCn3cc([C@H](O)c4ccccc4)nn3)[C@@H]([Si](C)(C)c3ccc(OC)cc3)[C@@H]2C)c2cc(N3CCOC3=O)ccc21
assigned.class: F

compound: COCCCNC(=O)[C@@]1(Cc2ccccc2CN=[N+]=[N-])COC(c2ccc(OCCCO)cc2)=N1
assigned.class: T

compound: CC(C)C(=C=CC[C@H](O)c1ccc(OCCO)cc1)C[C@H](O)COCc1ccccc1
assigned.class: F

compound: C=C(C1=CCN(S(=O)(=O)c2ccc(C)cc2)C1)[C@@H](OC(C)=O)[C@@H]1CCCN1S(=O)(=O)c1ccccc1[N+](=O)[O-]
assigned.class: F

compound: COCCOC(=O)N1C(=O)[C@@]2(c3cc(C#CC4(O)CCCCCC4)ccc31)[C@H](c1ccccc1OCCO)N1[C@H](c3ccccc3)[C@H](c3ccccc3)OC(=O)[C@H]1[C@@H]2C(=O)Nc1nc2ccccc2s1
assigned.class: T

compound: O=C(O)[C@H]1C[C@H]2C(=O)NCC(=O)N2[C@H]1c1cccc(OCCO)c1
assigned.class: T

compound: COC(=O)c1c2oc(c1C(=O)OC)C(=O)N[C@@H](C(C)C)Cn1nncc1C1(CCCCC1)NC(=O)N[C@H](CO)CC2
assigned.class: F

compound: C=CCOC(=O)[C@H]1[C@@H]2C(=O)O[C@@H](c3ccccc3)[C@@H](c3ccccc3)N2[C@@H](c2ccc(OCCOC(=O)[C@H]3C[C@H]4C(=O)N5CCC[C@H]5C(=O)N4[C@H]3c3cccc(OCCO)c3)cc2)[C@]12C(=O)Nc1ccccc12
assigned.class: T

compound: O=C1N(CCS(=O)(=O)c2ccccc2)Cc2ccccc2[C@@H]2OC(c3ccc(OCCCO)cc3)=N[C@]12Cc1ccccc1
assigned.class: T

compound: CC(C)N1CC=CC23O[C@@H]4/C=C\CCCOC(=O)C4[C@H]2C(=O)N(CCCO)[C@@H]3C1=O (some centres undefined)
assigned.class: T

compound: C=CCC(OC(C)=O)[C@@H]1[C@@H](N(Cc2cccc3ccccc23)C(=O)c2cccc3ccccc23)c2cc(OCCCO)ccc2N1C(=O)Cc1ccc(OC)cc1 (some centres undefined)
assigned.class: T

compound: C=CCN1C(=O)[C@@]2(O[C@@H](CCn3cc(CCO)nn3)[C@H]([Si](C)(C)c3ccc(OC)cc3)[C@H]2C)c2cc(NC(=O)c3ccc(OC)cc3)ccc21
assigned.class: F

compound: COc1ccc([Si](C)(C)[C@@H]2[C@@H](CC(=O)N3CCC[C@H]3CO)O[C@]3(C(=O)N(Cc4ccc(N5CCC5=O)cc4)c4ccccc43)[C@H]2C)cc1
assigned.class: F

compound: C#CCN1C(C(=O)OCC)OC[C@H]1c1ccccc1 (some centres undefined)
assigned.class: F
